- assay-explanation: growth inhibitors of H69AR lung tumor, primary screen, human, duplicate replicates (AID 580)
- assay-conditions: H69AR lung tumor cells viability, ATP luminescence, 72 h; at 10 µM; stronger effect = lower value
Field 'label' (enum: Yes / No). Set to Yes when viability is strictly under 90%; else No.

{"compound": "N#Cc1cnn(Cc2ccc(Cl)cc2)c1N", "category-label": "No"}

Given Cc1ccc2nc(NC(=O)C3CCCN(S(=O)(=O)c4cccc5nonc45)C3)sc2c1 (stereo not drawn) , is recorded viability strictly lower than 90%?
Yes

Given COc1ccc(NC(=O)CSc2c(C)nn(-c3nnc(C)c(=O)[nH]3)c2C)cc1 , is recorded viability strictly lower than 90%?
No

Given Nc1nc(CSc2nc3ccccc3[nH]2)nc(N2CCOCC2)n1 , is recorded viability strictly lower than 90%?
No
